assay-procedure: Pharmacokinetic evaluation I in ICR mice
Format: in vivo
protocol-conditions: mouse, po, 5 mg/kg, plasma
measured-endpoint: Cmax (µM)
Answers are plain numbers, in µM.

Sample records with Cmax:
CCS(=O)(=O)c1ccc([C@H](CO)NC(=O)c2ccc(N3C[C@@H](Oc4ccc(C(F)(F)F)cc4)C[C@H]3COC(F)F)cc2)cc1 [Example 39] = 1.5
CCS(=O)(=O)c1ccc([C@H](CCO)NC(=O)c2ccc(N3C[C@@H](Oc4ccc(C(F)(F)F)cc4)C[C@H]3COC(F)F)cc2)cc1 [Example 91] = 1.9

Report Cmax for each item below.
1. CCS(=O)(=O)c1ccc([C@H](CO)NC(=O)c2ccc(N3C[C@@H](Oc4ccc(C(F)(F)F)cc4)C[C@H]3COC(F)(F)F)cc2)cc1 [Example 48]
2. CCS(=O)(=O)c1ccc([C@H](CCO)NC(=O)c2ccc(N3C[C@@H](Oc4ccc(OC(F)(F)F)cc4)C[C@H]3COC(F)F)cc2)cc1 [Example 119]

1.7
2.38
